Reference source: patent US20200385406A1

target: SIV Nef-mac239 (Simian immunodeficiency virus); experiment: SPR binding to recombinant purified Nef protein
Recorded Kd determines the group label, using low: < 1 µM; medium: ≥ 1 µM and < 3 µM; high: ≥ 3 µM

Here are 5 compounds together with their reported answers.
compound=O=C(c1cc(-n2sc3ncccc3c2=O)ccc1Cl)N1CCCC1 target_of_assay="SIV Nef-mac239 (Simian immunodeficiency virus)" label_class=high
compound=CC1(C)CN(C(=O)c2cc(-n3sc4ncccc4c3=O)ccc2Cl)CCO1 target_of_assay="SIV Nef-mac239 (Simian immunodeficiency virus)" label_class=medium
compound=O=C(c1cc(-n2sc3nc(C(F)(F)F)ccc3c2=O)ccc1Cl)N1CCOCC1 target_of_assay="SIV Nef-mac239 (Simian immunodeficiency virus)" label_class=low
compound=Cc1ccc(-n2sc3ncccc3c2=O)cc1S(=O)(=O)N1CCCC1 target_of_assay="SIV Nef-mac239 (Simian immunodeficiency virus)" label_class=medium
compound="CC1CN(C(=O)c2cc(-n3sc4ncccc4c3=O)ccc2Cl)CC(C)O1 (stereo not drawn)" target_of_assay="SIV Nef-mac239 (Simian immunodeficiency virus)" label_class=medium

Request: State the band of O=C(c1cc(-n2sc3ncccc3c2=O)ccc1Cl)N1CCOCC1
Result: medium

Request: State the band of O=C(Nc1ccc(Cl)cc1)c1cc(-n2sc3ncccc3c2=O)ccc1Cl
Result: low

Request: State the band of O=C(c1cc(-n2sc3ncccc3c2=O)ccc1Cl)N1CCCCC1
Result: high

Request: State the band of O=C(c1cc(-n2sc3ncccc3c2=O)ccc1Cl)N1CCC(F)(F)CC1
Result: high

* * *

molecular target: HIV-1 Nef NL4-3 (Human immunodeficiency virus type 1 group M subtype B, UniProt P03406, A33V/T15A/T51N/V11I); construct: Full-length recombinant Nef proteins (HIV-1 Nef-SF2, HIV-1 Nef NL4-3 and SIV Nef-mac239) were expressed in E. coli; His-6 (N); made in house; host or cells: E. coli; assay: SPR binding to recombinant purified Nef protein
Listing of entries alongside the reported pKd.
The scale used: pKd is minus the common logarithm of the concentration in molar units.

compound="O=C(c1cccc(-n2sc3ncccc3c2=O)c1)N1CCOCC1 [Compound 10]" value=6.60
compound="CC1(C)CN(C(=O)c2cc(-n3sc4ncccc4c3=O)ccc2Cl)CCO1 [Compound 11]" value=6.68
compound="O=C(c1ccc(-n2sc3ncccc3c2=O)cc1)N1CCCC1 [Compound 9]" value=7.40
compound="O=C(c1cc(-n2sc3ncccc3c2=O)ccc1Cl)N1CCC(F)(F)CC1 [Compound 16]" value=4.25
compound="O=C(Nc1ccc(Cl)cc1)c1cc(-n2sc3ncccc3c2=O)ccc1Cl [Compound 7]" value=6.72

For reference, reported pKd for O=C(c1cc(-n2sc3ncccc3c2=O)ccc1Cl)N1CCCCC1 [Compound 14] stands at 5.75

For reference, reported pKd for O=C(c1cc(-n2sc3ncccc3c2=O)ccc1Cl)N1CCCC1 [Compound 12] stands at 6.02

For reference, reported pKd for Cc1ccc(-n2sc3ncccc3c2=O)cc1S(=O)(=O)N1CCCC1 [Compound 6] stands at 5.06

For reference, reported pKd for O=C(c1cc(-n2sc3ncccc3c2=O)ccc1Cl)N1CCOCC1 [Compound 5] stands at 5.13

For reference, reported pKd for O=C(c1cc(-n2sc3nc(C(F)(F)F)ccc3c2=O)ccc1Cl)N1CCOCC1 [Compound 8] stands at 6.51

For reference, reported pKd for CC1CN(C(=O)c2cc(-n3sc4ncccc4c3=O)ccc2Cl)CC(C)O1 (centres unmarked) [Compound 13] stands at 6.23

* * *

tested on: HIV-1 NL4-3; assay: HIV-1 infectivity assay in TZM-bl reporter cells; format: cell-based; conditions: Human immunodeficiency virus 1, NL43, TZM-bl, read-out: % Inhibition of HIV-1 Infectivity at 3 μM relative to ΔNef
# cutoff 80% applies to inhibition at 3 µM; >= gives Fulfilled, < gives Not fulfilled

Request: Item CC1(C)CN(C(=O)c2cc(-n3sc4ncccc4c3=O)ccc2Cl)CCO1 with inhibition at 3 µM of 80% or above?
Result: Fulfilled

Request: Item Cc1ccc2c(=O)n(-c3ccc(F)c(C(=O)N4CCOCC4)c3)sc2n1 with inhibition at 3 µM of 80% or above?
Result: Not fulfilled

Request: Item O=C(c1cccc(-n2sc3ncccc3c2=O)c1)N1CCOCC1 with inhibition at 3 µM of 80% or above?
Result: Fulfilled

Request: Item O=C(c1cc(-n2sc3ncccc3c2=O)ccc1F)N1CCOCC1 with inhibition at 3 µM of 80% or above?
Result: Fulfilled

Request: Item Cc1ccc(-n2sc3ncccc3c2=O)cc1S(=O)(=O)N1CCCC1 with inhibition at 3 µM of 80% or above?
Result: Not fulfilled

* * *

target: HIV-1 Nef-SF2 (Human immunodeficiency virus type 1 group M subtype B, UniProt P03407); construct: Full-length recombinant Nef proteins (HIV-1 Nef-SF2, HIV-1 Nef NL4-3 and SIV Nef-mac239) were expressed in E. coli; His-6 (N); made in house; host or cells: E. coli; test: SPR binding to recombinant purified Nef protein; details: HIV-1 Nef-SF2, KD, Biacore T100 instrument
METRIC NAME: pKd
The scale used: pKd is minus the common logarithm of the concentration in molar units.

compound_smiles=O=C(c1cc(-n2sc3ncccc3c2=O)ccc1F)N1CCOCC1 value=5.99
compound_smiles=Cc1ccc2c(=O)n(-c3ccc(F)c(C(=O)N4CCOCC4)c3)sc2n1 value=6.30
compound_smiles=O=C(Nc1ccc(Cl)cc1)c1cc(-n2sc3ncccc3c2=O)ccc1Cl value=6.92
compound_smiles=Cc1ccc2c(=O)n(-c3ccc(Cl)c(C(=O)N4CCOCC4)c3)sc2n1 value=6.06
compound_smiles=O=C(c1cc(-n2sc3ncccc3c2=O)ccc1Cl)N1CCOCC1 value=6.79
compound_smiles=O=C(c1cc(-n2sc3nc(C(F)(F)F)ccc3c2=O)ccc1Cl)N1CCOCC1 value=6.96

# Cc1ccc2c(=O)n(-c3ccc(C)c(S(=O)(=O)N4CCCC4)c3)sc2n1 with HIV-1 Nef-SF2 (Human immunodeficiency virus type 1 group M subtype B, UniProt P03407): pKd is 6.59
